- tgt: T1, TNFR1 (Homo sapiens, UniProt P19438)
- T1 chain: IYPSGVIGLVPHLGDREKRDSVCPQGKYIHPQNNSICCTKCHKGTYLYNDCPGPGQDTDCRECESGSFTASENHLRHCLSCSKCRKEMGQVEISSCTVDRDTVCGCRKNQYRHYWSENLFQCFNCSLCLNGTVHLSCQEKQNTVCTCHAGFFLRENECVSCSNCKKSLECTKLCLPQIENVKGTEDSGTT
- assay: yeast display SC50
A collection of binders and their measured apparent Kd (screen)
property label: apparent Kd (screen) (nM)

>  <binder>
A36P (designed binder) SMEEEVEKAAKEYEKKKKEAIEKHLEKLKAKDKEAPERFLKELEEAAKEYAKDEAKTMSEEEAKRRAKKYKEKVLLSELSEEEQKEIKEAEEKLVRTILKYVEEAAK

>  <property label>
apparent Kd (screen)

>  <test value>
0.446

$$$$
>  <binder>
E83S (designed binder) SMEEEVEKAAKEYEKKKKEAIEKHLEKLKAKDKEAAERFLKELEEAAKEYAKDEAKTMSEEEAKRRAKKYKEKVLLSELSEESQKEIKEAEEKLVRTILKYVEEAAK

>  <property label>
apparent Kd (screen)

>  <test value>
0.869

$$$$
